Target: T1, mouse NOXO1 SH3AB–E (tandem SH3 domains plus the C-terminal portion of NOXO1) (mouse, UniProt Q8VCM2 160-349)
T1 construct: mouse NOXO1, tandem SH3 domains plus the C-terminal portion; source: E. coli BL21 STAR, purified (glutathione Sepharose, PreScission cleavage, Superdex 75)
T1 sequence (looked up): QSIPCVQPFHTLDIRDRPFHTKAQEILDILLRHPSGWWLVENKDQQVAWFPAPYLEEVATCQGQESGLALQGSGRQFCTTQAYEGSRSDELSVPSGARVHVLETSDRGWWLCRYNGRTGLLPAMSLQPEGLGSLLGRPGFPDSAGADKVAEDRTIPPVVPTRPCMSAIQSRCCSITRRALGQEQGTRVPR
Assay: ITC; MicroCal VP-ITC, 18°C; 150 mM NaCl, 1 mM DTT, 50 mM HEPES pH 7.4; typically 20–40 µM protein in the cell, 200–300 µM ligand injected; single-site binding model; averaged over three to five experiments
Conditions: both partners purified
observable: Kd (nM)
Give bare numbers, in nM.

binder mouse p22^phox cytoplasmic domain (p22^phoxC) (domain or fragment, UniProt Q61462 127-192, looked up, mouse p22phox, cytoplasmic domain; also called murine p22^phox; source: E. coli BL21 STAR, purified (glutathione Sepharose, PreScission cleavage, Superdex 75)) RGEQWTPIEPKPKERPQVGGTIKQPPTNPPPRPPAEVRKKPSEGEEEAASAGGPQVNPMPVTDEVV , Kd observed: 780

The measured values listed here are drawn from paper PMC2864300.
